- Target under test: kinase panel containing either 359 or 386 distinct kinases
- Protocol: Selectivity score S10 from competition binding against a panel of kinases
- Test context: compounds at 10 μM; panel of 386 distinct kinases
Measured attribute: Kinase specificty: S(10)-386 panel

[[record]]
smiles_input = "CC(C)(C)c1cc(NC(=O)Cc2ccc(-c3cnc(N)cc3F)cc2)no1.CS(=O)(=O)O"
target_under_test = "kinase panel containing either 359 or 386 distinct kinases"
experimental_result = "B (0.1<B≦0.2 nM)"

[[record]]
smiles_input = "CC1(c2cc(NC(=O)Cc3ccc(-c4ccc(N)nc4F)cc3)no2)CC1"
target_under_test = "kinase panel containing either 359 or 386 distinct kinases"
experimental_result = "A (A≦0.1)"

[[record]]
smiles_input = "CC(C)(C)c1cc(NC(=O)Cc2ccc(-c3ccc(N)nc3F)cc2)no1.CS(=O)(=O)O"
target_under_test = "kinase panel containing either 359 or 386 distinct kinases"
experimental_result = "A (A≦0.1)"

[[record]]
smiles_input = "CN1C(C)(C)CC(=CCNc2ccc(-c3ccc(CC(=O)Nc4cc(C(C)(C)C)on4)cc3)cn2)CC1(C)C"
target_under_test = "kinase panel containing either 359 or 386 distinct kinases"
experimental_result = "B (0.1<B≦0.2 nM)"


----------
Measured attribute: Kd

IN: Provide the documented Kd with KIT kinase (Homo sapiens, UniProt P10721) as the system for CC(C)(C)c1cc(NC(=O)Cc2ccc(-c3ccc(NCCN4CCOCC4)nc3)cc2)no1.CS(=O)(=O)O [Example 105, methanesulfonate]
Sequence (P10721 26-976): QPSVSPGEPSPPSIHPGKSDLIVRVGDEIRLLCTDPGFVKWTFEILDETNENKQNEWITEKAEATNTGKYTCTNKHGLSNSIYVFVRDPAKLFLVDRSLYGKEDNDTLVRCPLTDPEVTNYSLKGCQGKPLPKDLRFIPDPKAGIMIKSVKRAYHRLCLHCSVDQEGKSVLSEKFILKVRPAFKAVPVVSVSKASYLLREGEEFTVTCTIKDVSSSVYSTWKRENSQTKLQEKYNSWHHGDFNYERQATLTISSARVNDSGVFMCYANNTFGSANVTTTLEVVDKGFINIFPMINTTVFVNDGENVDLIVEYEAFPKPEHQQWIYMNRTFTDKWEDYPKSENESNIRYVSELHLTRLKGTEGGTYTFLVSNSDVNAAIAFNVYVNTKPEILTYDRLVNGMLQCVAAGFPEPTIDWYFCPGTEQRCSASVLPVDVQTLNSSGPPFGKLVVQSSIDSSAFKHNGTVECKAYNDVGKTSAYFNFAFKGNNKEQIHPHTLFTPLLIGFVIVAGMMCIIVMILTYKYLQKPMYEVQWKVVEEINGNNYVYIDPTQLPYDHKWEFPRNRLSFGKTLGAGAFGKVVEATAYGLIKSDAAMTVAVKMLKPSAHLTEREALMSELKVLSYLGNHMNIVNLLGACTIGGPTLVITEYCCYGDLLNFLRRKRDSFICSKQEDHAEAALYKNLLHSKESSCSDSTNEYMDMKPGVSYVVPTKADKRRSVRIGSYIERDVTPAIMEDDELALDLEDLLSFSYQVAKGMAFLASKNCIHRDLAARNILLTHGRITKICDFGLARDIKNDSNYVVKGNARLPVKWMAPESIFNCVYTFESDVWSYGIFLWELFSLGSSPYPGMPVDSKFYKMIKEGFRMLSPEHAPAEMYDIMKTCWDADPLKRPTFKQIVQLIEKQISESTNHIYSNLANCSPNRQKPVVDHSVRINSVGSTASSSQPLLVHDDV
OUT: ≤ 1 nM

IN: API: value(readout=Kd, system=KIT kinase (Homo sapiens, UniProt P10721)) for record CC(C)(C)c1cc(NC(=O)Cc2ccc(-c3cnc(N)cc3Cl)cc2)no1.CS(=O)(=O)O [Example 150, methanesulfonate]
OUT: 1 to 10 nM

IN: Observed Kd on KIT kinase (Homo sapiens, UniProt P10721) for CC(C)(C)c1cc(NC(=O)Cc2ccc(-c3cnc(N)c([S+]([O-])C(C)(C)C)c3)cc2)no1 (centres unmarked) , please.
OUT: 1 to 10 nM

IN: What Kd appears in the records for this molecule with KIT kinase (Homo sapiens, UniProt P10721)? CC(C)(C)c1cc(NC(=O)Cc2ccc(-c3ccc(NCCS(C)(=O)=O)nc3)cc2)no1.CS(=O)(=O)O [Example 92, methanesulfonate]
OUT: 1 to 10 nM

IN: Kd of Nc1ccc(-c2ccc(CC(=O)Nc3cc(C4(C(F)F)CC4)on3)cc2)cn1 on KIT kinase (Homo sapiens, UniProt P10721)?
OUT: ≤ 1 nM

IN: Report Kd for CC(C)(C)c1cc(NC(=O)Cc2ccc(-c3ccc(N)nc3Cl)cc2)no1.CS(=O)(=O)O [Example 132, methanesulfonate] tested on KIT kinase (Homo sapiens, UniProt P10721).
OUT: 1 to 10 nM

IN: Give Kd (KIT kinase (Homo sapiens, UniProt P10721)) of the following molecule: CN1CCCC1CCNc1ccc(-c2ccc(NC(=O)Nc3cc(C(C)(C)C)on3)cc2)cn1 (centres unmarked)
OUT: ≤ 1 nM

IN: Request body: readout Kd, system KIT kinase (Homo sapiens, UniProt P10721), query CC(C)(C)c1cc(NC(=O)Cc2ccc(-c3ccc(N)nc3)cc2F)no1 . Return the value.
OUT: 1 to 10 nM

IN: Write down the reported Kd of CC(C)(CO)c1cc(NC(=O)Nc2ccc(-c3ccc(N)nc3)cc2)on1 [Example 81, methanesulfonate] , test system: KIT kinase (Homo sapiens, UniProt P10721).
OUT: 1 to 10 nM

IN: Please provide the recorded Kd for CC(C)(F)c1cc(NC(=O)Cc2ccc(-c3ccc(N)nc3)cc2)on1.CS(=O)(=O)O [Example 101, methanesulfonate] , tested on KIT kinase (Homo sapiens, UniProt P10721).
OUT: ≤ 1 nM

IN: Which Kd is reported with KIT kinase (Homo sapiens, UniProt P10721) for this entry: CC(C)(c1cc(NC(=O)Cc2ccc(-c3ccc(N)nc3F)cc2)no1)C(F)(F)F.CS(=O)(=O)O [Example 142, methanesulfonate] ?
OUT: 1 to 10 nM

IN: Missing value: Kd, KIT kinase (Homo sapiens, UniProt P10721), entry CC1(c2cc(NC(=O)Cc3ccc(-c4ccc(N)nc4)cc3)no2)CC1.CS(=O)(=O)O [Example 100, methanesulfonate] . Fill in?
OUT: ≤ 1 nM

IN: What measured Kd is associated with CC1(c2cc(NC(=O)Nc3ccc(-c4ccc(N)nc4)cc3)no2)CC1(F)F.CS(=O)(=O)O (centres unmarked) [Example 112, methanesulfonate] on KIT kinase (Homo sapiens, UniProt P10721)?
OUT: 1 to 10 nM

IN: For the record CC(C)(C)c1cc(NC(=O)Nc2ccc(-c3cnc(N)c(CN4CCOCC4)c3)cc2)no1 , what value of Kd is listed for KIT kinase (Homo sapiens, UniProt P10721)?
OUT: 1 to 10 nM

IN: Please tell me: Kd of CC(C)(F)c1cc(NC(=O)Nc2ccc(-c3ccc(N)nc3)cn2)on1 , system KIT kinase (Homo sapiens, UniProt P10721)?
OUT: ≤ 1 nM

IN: # get_value(readout= Kd, system= KIT kinase (Homo sapiens, UniProt P10721)) for CC1(c2cc(NC(=O)Cc3ccc(-c4ccc(N)nc4)cc3)no2)COC1.CS(=O)(=O)O [Example 99, methanesulfonate]
OUT: 1 to 10 nM

IN: Item CC(C)(C)c1cc(NC(=O)Cc2ccc(-c3cnc(N)cc3C(F)(F)F)cc2)no1 with KIT kinase (Homo sapiens, UniProt P10721) - Kd?
OUT: 1 to 10 nM

IN: Given the entry CC(C)(C)c1cc(NC(=O)Cc2ccc(-c3ccc(NCCN4CCC(F)(F)CC4)nc3)cc2)no1.CS(=O)(=O)O [Example 108, methanesulfonate] , what Kd was observed with KIT kinase (Homo sapiens, UniProt P10721)?
OUT: 1 to 10 nM

IN: Given the entry CC1(c2cc(NC(=O)Nc3ccc(-c4ccc(N)nc4)cc3)no2)COC1.CS(=O)(=O)O [Example 98, methanesulfonate] , what Kd was observed with KIT kinase (Homo sapiens, UniProt P10721)?
OUT: 1 to 10 nM

IN: Kd of CC(C)(C)c1cc(NC(=O)C(O)c2ccc(-c3ccc(N)nc3)cc2)no1 (centres unmarked) on KIT kinase (Homo sapiens, UniProt P10721)?
OUT: 1 to 10 nM

IN: What reported Kd corresponds to CC(C)(C)c1cc(NC(=O)Nc2ccc(-c3ccc(NCCN4CCOCC4)nc3)cc2)no1 on KIT kinase (Homo sapiens, UniProt P10721)?
OUT: ≤ 1 nM

IN: Find Kd (KIT kinase (Homo sapiens, UniProt P10721)) for the entry CC(C)(C)c1cc(NC(=O)Cc2ccc(-c3ccc(N)nc3)nc2)no1
OUT: ≤ 1 nM

IN: So what Kd did CC(F)(F)C1(c2cc(NC(=O)Cc3ccc(-c4ccc(N)nc4)cc3)no2)CC1 get with KIT kinase (Homo sapiens, UniProt P10721)?
OUT: 1 to 10 nM

IN: Query for KIT kinase (Homo sapiens, UniProt P10721): what Kd does the record show for CC1(c2cc(NC(=O)Cc3ccc(-c4ccc(N)nc4F)cc3)no2)COC1 ?
OUT: 1 to 10 nM

IN: Tell me reported Kd for COCCNc1ccc(-c2ccc(CC(=O)Nc3cc(C(C)(C)C)on3)cc2)cn1 [Example 89, methanesulfonate] , tested with KIT kinase (Homo sapiens, UniProt P10721).
OUT: 1 to 10 nM

IN: Form field: Kd recorded for Cc1ccc(F)c(NC(=O)Nc2ccc(-c3cnc(NCCN4CCOCC4)nc3)cc2)c1 with KIT kinase (Homo sapiens, UniProt P10721) (enter value)
OUT: ≤ 1 nM

IN: Kd of Nc1ccc(-c2ccc(NC(=O)Nc3cc(C4(C(F)(F)F)CC4)on3)cc2)cn1 [Example 33, methanesulfonate] on KIT kinase (Homo sapiens, UniProt P10721)?
OUT: ≤ 1 nM

IN: Please tell me: Kd of CC(C)(CO)c1cc(NC(=O)Cc2ccc(-c3ccc(N)nc3)cc2)on1 [Example 83, methanesulfonate] , system KIT kinase (Homo sapiens, UniProt P10721)?
OUT: 1 to 10 nM

IN: Param readout = Kd; param system = KIT kinase (Homo sapiens, UniProt P10721); param query = CC(C)(C)c1cc(NC(=O)Nc2ccc(-c3cnc(NC4CCOCC4)nc3)cn2)no1 ; response: value
OUT: ≤ 1 nM

----------
- Target under test: FLT3 kinase (Homo sapiens, UniProt P36888)
- Sequence (P36888 27-993): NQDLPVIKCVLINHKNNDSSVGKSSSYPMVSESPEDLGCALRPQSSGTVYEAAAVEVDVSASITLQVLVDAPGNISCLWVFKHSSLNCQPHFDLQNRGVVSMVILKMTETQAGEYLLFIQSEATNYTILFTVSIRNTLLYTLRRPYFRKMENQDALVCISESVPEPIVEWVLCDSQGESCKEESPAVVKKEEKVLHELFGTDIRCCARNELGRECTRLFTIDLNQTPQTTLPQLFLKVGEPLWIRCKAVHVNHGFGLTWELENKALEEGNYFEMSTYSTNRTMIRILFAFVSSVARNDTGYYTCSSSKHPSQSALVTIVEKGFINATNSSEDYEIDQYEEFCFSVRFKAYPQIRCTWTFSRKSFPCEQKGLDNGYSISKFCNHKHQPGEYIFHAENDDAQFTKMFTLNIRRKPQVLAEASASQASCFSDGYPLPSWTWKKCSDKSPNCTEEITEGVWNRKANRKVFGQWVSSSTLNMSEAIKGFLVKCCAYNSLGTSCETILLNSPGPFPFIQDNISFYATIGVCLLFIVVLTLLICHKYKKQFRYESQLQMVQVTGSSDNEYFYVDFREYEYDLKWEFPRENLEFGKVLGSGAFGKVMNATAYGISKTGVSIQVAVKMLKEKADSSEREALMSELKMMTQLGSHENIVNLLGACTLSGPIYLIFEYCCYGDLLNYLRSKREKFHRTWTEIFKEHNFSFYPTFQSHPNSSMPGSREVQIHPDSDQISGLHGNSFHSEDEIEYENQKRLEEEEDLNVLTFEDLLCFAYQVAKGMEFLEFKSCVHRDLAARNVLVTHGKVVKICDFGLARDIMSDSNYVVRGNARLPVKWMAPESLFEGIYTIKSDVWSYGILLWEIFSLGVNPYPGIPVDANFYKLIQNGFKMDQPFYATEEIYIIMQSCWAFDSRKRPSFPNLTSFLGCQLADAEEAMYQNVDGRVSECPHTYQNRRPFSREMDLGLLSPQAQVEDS
pKd: −log10 of the molar value.
Measured attribute: pKd

IN: Would you kindly share the measured pKd for CC(C)(C)c1cc(NC(=O)Cc2ccc(-c3ccc(N)nc3)nc2)no1 ?
OUT: ≥ 9.00

IN: Field request: pKd | item: CCNc1ccc(-c2ccc(CC(=O)Nc3cc(C(C)(C)C)on3)cc2)cn1.CS(=O)(=O)O [Example 111, methanesulfonate]
OUT: ≥ 9.00

IN: Value lookup for pKd; key = CC1(c2cc(NC(=O)Cc3ccc(-c4cnc(N)c(C(F)(F)F)c4)cc3)no2)CC1
OUT: ≥ 9.00

IN: State the recorded pKd for this entry: CS(=O)(=O)O.Nc1ccc(-c2ccc(CC(=O)Nn3cc(C(F)(F)F)cn3)cc2)cn1 [Example 126, methanesulfonate]
OUT: ≥ 9.00

IN: Entry CC(CF)(CF)c1cc(NC(=O)Nc2ccc(-c3ccc(N)nc3)cn2)no1 : reported pKd = ?
OUT: ≥ 9.00

IN: Name the recorded pKd for CC(C)(C)c1cc(NC(=O)Cc2ccc(-c3ccc(N)nc3F)cc2)on1.CS(=O)(=O)O [Example 119, methanesulfonate] .
OUT: ≥ 9.00

IN: Suppose we examine the compound Nc1ccc(-c2ccc(CC(=O)Nc3cc(C4(C(F)(F)F)CCC4)on3)cc2)cn1 ; what pKd value has been reported?
OUT: ≥ 9.00

IN: Request the reported pKd associated with Nc1ncc(-c2ccc(NC(=O)Cc3cccc(C(F)(F)F)c3)cc2)cn1
OUT: 8.00 to 9.00

IN: # query: pKd of entry CC(C)(CF)c1cc(NC(=O)Nc2ccc(-c3ccc(N)nc3)cc2)on1
OUT: 8.00 to 9.00

IN: Suppose we examine the compound CC1(c2cc(NC(=O)Cc3ccc(-c4ccc(N)nc4)cc3)no2)COC1.CS(=O)(=O)O [Example 99, methanesulfonate] ; what pKd value has been reported?
OUT: ≥ 9.00

IN: Return reported pKd; argument: Cc1nc(N)ccc1-c1ccc(NC(=O)Nc2cc(C(C)(C)C)on2)nc1
OUT: ≥ 9.00

IN: May I ask what pKd has been recorded for CC(CF)(CF)c1cc(NC(=O)Nc2ccc(-c3cnc(NCCN4CCOCC4)nc3)cc2)no1 ?
OUT: ≥ 9.00

IN: # pKd lookup, item CC(C)(C)c1cc(NC(=O)Nc2ccc(-c3cnc4c(c3)CCC(=O)N4)cc2)no1
OUT: 8.00 to 9.00

IN: Entry under review: CC1(c2cc(NC(=O)Nc3ccc(-c4ccc(N)nc4)cc3)no2)COC1.CS(=O)(=O)O [Example 98, methanesulfonate] . Reported pKd?
OUT: 8.00 to 9.00

IN: Dear colleague, I am looking for the recorded pKd of the following compound: O=C(Nc1ccc(-c2ccc(NCCN3CCOCC3)nc2)cc1)Nc1cc(C2(C(F)(F)F)CC2)on1 [Example 36, methanesulfonate]
OUT: ≥ 9.00

IN: Look at this compound and give its reported pKd. CC(C)(F)c1cc(NC(=O)Nc2ccc(-c3ccc(NCCN4CCOCC4)nc3)cc2)on1
OUT: 8.00 to 9.00
